// provenance: the supplement of paper PMC9233669

# System: biotinyl-Val-oxazolone
# experimental protocol: self-aminoacylation, catalytic enhancement (BVO) (fold over background); higher = more active; k-Seq, kA / k0A0; sequences stand for … in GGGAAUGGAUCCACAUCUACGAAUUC…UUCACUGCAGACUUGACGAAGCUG
Variants at the floor of the assay were thinned out.
Reported values of self-aminoacylation for individual entries

query sequence: CAACUUCAGACAAUCGGUCUG [Fam1A.1 aminoacylation ribozyme variant]
self-aminoacylation: 1.09
//
query sequence: AUUCACCUACGUCAUCGGGUG [Fam2.2 aminoacylation ribozyme variant]
self-aminoacylation: 3.38
//
query sequence: CUACUUCAAACAUUAGGUCUG [Fam1A.1 aminoacylation ribozyme variant]
self-aminoacylation: 0.747
//
query sequence: AUUGACCUGGUCAUCGAGUGA [Fam2.1 aminoacylation ribozyme variant]
self-aminoacylation: 4.1
//
query sequence: CCACACGUCAAGCAAUAGGUC [Fam1B.1 aminoacylation ribozyme variant]
self-aminoacylation: 0.831
//
query sequence: CUACUUCAACCAAUAGGUCUG [Fam1A.1 aminoacylation ribozyme variant]
self-aminoacylation: 0.777
//
query sequence: AUUCACCUAUGUCCUCGGGUG [Fam2.2 aminoacylation ribozyme variant]
self-aminoacylation: 2.04
//
query sequence: CUUCUUCAAUCAAUCGGUCUG [Fam1A.1 aminoacylation ribozyme variant]
self-aminoacylation: 0.956

---

# Test system: biotinyl-Met-oxazolone
# experimental protocol: self-aminoacylation, catalytic enhancement (BMO) (fold over background); higher = more active; k-Seq, kA / k0A0; sequences stand for … in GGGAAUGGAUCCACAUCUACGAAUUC…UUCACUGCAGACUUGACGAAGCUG
Variants at the floor of the assay were thinned out.
Reported values of self-aminoacylation for individual entries

query sequence: UUACUUCAAACAAUGGGUCUG [Fam1A.1 aminoacylation ribozyme variant]
self-aminoacylation: 1.03
//
query sequence: CCACACGUCGAGCAAUCGGUC [Fam1B.1 aminoacylation ribozyme variant]
self-aminoacylation: 0.959
//
query sequence: CAACUUCAGACAAUCGGUCUG [Fam1A.1 aminoacylation ribozyme variant]
self-aminoacylation: 0.989
//
query sequence: CUACUACAAACGAUCGGUCUG [Fam1A.1 aminoacylation ribozyme variant]
self-aminoacylation: 0.915
//
query sequence: AUCCACCUAGGUCAUCGGGUC [Fam2.2 aminoacylation ribozyme variant]
self-aminoacylation: 2.25
//
query sequence: AAGUCUGCUAAUAGCCGCAAG [Fam3.1 aminoacylation ribozyme variant]
self-aminoacylation: 1.13
//
query sequence: CUACUUUAAUCAAUCGGUCUG [Fam1A.1 aminoacylation ribozyme variant]
self-aminoacylation: 0.892
//
query sequence: UUUGCCCUGGUCAUCGAGUGA [Fam2.1 aminoacylation ribozyme variant]
self-aminoacylation: 45.5
//
query sequence: ACACACUUCAAGCAAUCGGGC [Fam1B.1 aminoacylation ribozyme variant]
self-aminoacylation: 2.81
//
query sequence: CCACACUUGAAGCAAUCGGUA [Fam1B.1 aminoacylation ribozyme variant]
self-aminoacylation: 0.976
//
query sequence: AUUCACCUAGGUCAGCGAGUG [Fam2.2 aminoacylation ribozyme variant]
self-aminoacylation: 4.93
//
query sequence: AUUAGCCUGGUCAUCGAGUGU [Fam2.1 aminoacylation ribozyme variant]
self-aminoacylation: 4.71
//
query sequence: AUUCACCUAGGUAAACGGGUG [Fam2.2 aminoacylation ribozyme variant]
self-aminoacylation: 3.77
//
query sequence: UUAACCCUGGUCAUCGAGUGA [Fam2.1 aminoacylation ribozyme variant]
self-aminoacylation: 11.7
//
query sequence: GAGUUUGCUAAUAGUCGCAAG [Fam3.1 aminoacylation ribozyme variant]
self-aminoacylation: 1.78
//
query sequence: AUUACCCUGGUAAUCGAGGGA [Fam2.1 aminoacylation ribozyme variant]
self-aminoacylation: 0.924
//
query sequence: GUUACGCUGGUCAUCGAGUGA [Fam2.1 aminoacylation ribozyme variant]
self-aminoacylation: 7.2
//
query sequence: AAGUUUGCUAAUAGUCGAAAG [Fam3.1 aminoacylation ribozyme variant]
self-aminoacylation: 1.47

---

Reported values of self-aminoacylation for individual entries
# Tested on: biotinyl-Phe-oxazolone
# experimental protocol: self-aminoacylation, catalytic enhancement (BFO) (fold over background); higher = more active; k-Seq, kA / k0A0; sequences stand for … in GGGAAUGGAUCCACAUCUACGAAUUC…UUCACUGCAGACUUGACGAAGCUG
Variants at the floor of the assay were thinned out.
endpoint label: self-aminoacylation

query sequence: AUUCACCUAUGUCAGCGGGUG [Fam2.2 aminoacylation ribozyme variant]
test system: biotinyl-Phe-oxazolone
endpoint label: self-aminoacylation
measured: 28.7

query sequence: AUUGCCCUGUUCAUCGAGUGA [Fam2.1 aminoacylation ribozyme variant]
test system: biotinyl-Phe-oxazolone
endpoint label: self-aminoacylation
measured: 25.2

query sequence: AUUACGCUGGUCAUCGAGUAA [Fam2.1 aminoacylation ribozyme variant]
test system: biotinyl-Phe-oxazolone
endpoint label: self-aminoacylation
measured: 0.975

query sequence: AAGUUAGCUAAUAGUCGGAAG [Fam3.1 aminoacylation ribozyme variant]
test system: biotinyl-Phe-oxazolone
endpoint label: self-aminoacylation
measured: 3.13

query sequence: AUUUCCCUGAUCAUCGAGUGA [Fam2.1 aminoacylation ribozyme variant]
test system: biotinyl-Phe-oxazolone
endpoint label: self-aminoacylation
measured: 18.5

---

# System: biotinyl-Ile-oxazolone
# experimental protocol: self-aminoacylation, catalytic enhancement (BIO) (fold over background); higher = more active; k-Seq, kA / k0A0; sequences stand for … in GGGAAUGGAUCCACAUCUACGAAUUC…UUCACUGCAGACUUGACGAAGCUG
Variants at the floor of the assay were thinned out.
endpoint label: self-aminoacylation

query sequence: AAUCACCUAGGUCAUCGAGUG [Fam2.2 aminoacylation ribozyme variant]
test system: biotinyl-Ile-oxazolone
measured: 3.52
--
query sequence: CAACACUUCAAGCAAUCGGUA [Fam1B.1 aminoacylation ribozyme variant]
test system: biotinyl-Ile-oxazolone
measured: 1.25
--
query sequence: CUUCUUCAAACAAUCGGUCUC [Fam1A.1 aminoacylation ribozyme variant]
test system: biotinyl-Ile-oxazolone
measured: 0.814
--
query sequence: UUACUUCAAACAAUGGGUCUG [Fam1A.1 aminoacylation ribozyme variant]
test system: biotinyl-Ile-oxazolone
measured: 1.05

---

# System: biotinyl-Met-oxazolone
# experimental protocol: self-aminoacylation, catalytic enhancement (BMO) (fold over background); higher = more active; k-Seq, kA / k0A0; sequences stand for … in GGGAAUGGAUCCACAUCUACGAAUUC…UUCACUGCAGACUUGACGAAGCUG
This sample holds only a part of the variants without activity.
Reported values of self-aminoacylation for individual entries
endpoint label: self-aminoacylation

query sequence: AUUACGCUGGUCAUAGAGUGA [Fam2.1 aminoacylation ribozyme variant]
test system: biotinyl-Met-oxazolone
measured: 3.31

query sequence: AUUCAGCUAGGUCCUCGGGUG [Fam2.2 aminoacylation ribozyme variant]
test system: biotinyl-Met-oxazolone
measured: 6.2

query sequence: CAACACUUCAAGCAAUCCGUC [Fam1B.1 aminoacylation ribozyme variant]
test system: biotinyl-Met-oxazolone
measured: 1.19

query sequence: AUUCACCUAGGUCAUCGAGGG [Fam2.2 aminoacylation ribozyme variant]
test system: biotinyl-Met-oxazolone
measured: 2.19

query sequence: AUUACCCUAGUCAUCGAGUGA [Fam2.1 aminoacylation ribozyme variant]
test system: biotinyl-Met-oxazolone
measured: 4.92

---

# System: biotinyl-Met-oxazolone
# experimental protocol: self-aminoacylation, catalytic enhancement (BMO) (fold over background); higher = more active; k-Seq, kA / k0A0; sequences stand for … in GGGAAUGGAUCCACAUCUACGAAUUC…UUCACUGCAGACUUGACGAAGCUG
This sample holds only a part of the variants without activity.

query sequence: AUUACACUGGUCAUCGAGGGA [Fam2.1 aminoacylation ribozyme variant]
self-aminoacylation: 1.26
//
query sequence: ACUCACCUAGGUCAUAGGGUG [Fam2.2 aminoacylation ribozyme variant]
self-aminoacylation: 1.57
//
query sequence: AUUCCCCUGGUCAUCGAUUGA [Fam2.1 aminoacylation ribozyme variant]
self-aminoacylation: 1.55
//
query sequence: CUACUUCAAACAAUCGGCCUA [Fam1A.1 aminoacylation ribozyme variant]
self-aminoacylation: 1.39
//
query sequence: CUACUUCAAACAAUUGUUCUG [Fam1A.1 aminoacylation ribozyme variant]
self-aminoacylation: 0.633
//
query sequence: CCACACUUCAAGCAAUCGCCC [Fam1B.1 aminoacylation ribozyme variant]
self-aminoacylation: 1.33
//
query sequence: CUACUUCAAACAAUCGUUCCG [Fam1A.1 aminoacylation ribozyme variant]
self-aminoacylation: 0.516
//
query sequence: CCACAGUUCAAGCAAUGGGUC [Fam1B.1 aminoacylation ribozyme variant]
self-aminoacylation: 1.03
//
query sequence: AAGUUUGCUUAUAGUAGCAAG [Fam3.1 aminoacylation ribozyme variant]
self-aminoacylation: 1.06
//
query sequence: CUACUUCAAACAAUCGACCUG [Fam1A.1 aminoacylation ribozyme variant]
self-aminoacylation: 0.545
//
query sequence: CCGCACUUCAAGCAAUCGGUG [Fam1B.1 aminoacylation ribozyme variant]
self-aminoacylation: 7.36
//
query sequence: CCACACUUCAGGCUAUCGGUC [Fam1B.1 aminoacylation ribozyme variant]
self-aminoacylation: 1.1
//
query sequence: AUUCACCCCGGUCAUCGGGUG [Fam2.2 aminoacylation ribozyme variant]
self-aminoacylation: 7.52
//
query sequence: AUUAACCUAGGUCAUCGGGUG [Fam2.2 aminoacylation ribozyme variant]
self-aminoacylation: 33.2
//
query sequence: AUUACCCUGGGCAUCGAUUGA [Fam2.1 aminoacylation ribozyme variant]
self-aminoacylation: 0.593
//
query sequence: AUUACCAUGGUCAUCGGGUGA [Fam2.1 aminoacylation ribozyme variant]
self-aminoacylation: 14.7
//
query sequence: CUACUACAAACAAUCGGUCUU [Fam1A.1 aminoacylation ribozyme variant]
self-aminoacylation: 0.565
//
query sequence: GUACUUCACACAAUCGGUCUG [Fam1A.1 aminoacylation ribozyme variant]
self-aminoacylation: 1.02
//
query sequence: AUUCACCUAGGUCAUCGGGAA [Fam2.2 aminoacylation ribozyme variant]
self-aminoacylation: 5.51
//
query sequence: AAGUUUGGUAUUAGUCGCAAG [Fam3.1 aminoacylation ribozyme variant]
self-aminoacylation: 1.51
//
query sequence: AUUACCCUGGUCAUAGAGUGA [Fam2.1 aminoacylation ribozyme variant]
self-aminoacylation: 10.4
//
query sequence: CUACUUCAAACGAUGGGUCUG [Fam1A.1 aminoacylation ribozyme variant]
self-aminoacylation: 0.58
//
query sequence: AUUCCCCUUGUCAUCGAGUGA [Fam2.1 aminoacylation ribozyme variant]
self-aminoacylation: 11.1
//
query sequence: CAACACUUCAAGCAAUUGGUC [Fam1B.1 aminoacylation ribozyme variant]
self-aminoacylation: 0.866
//
query sequence: AUUACCCUGGUCCUCGCGUGA [Fam2.1 aminoacylation ribozyme variant]
self-aminoacylation: 11
//
query sequence: AAUCCCCUAGGUCAUCGGGUG [Fam2.2 aminoacylation ribozyme variant]
self-aminoacylation: 13.5
//
query sequence: UUUACCCUGGUCAUCGAGUGU [Fam2.1 aminoacylation ribozyme variant]
self-aminoacylation: 82.3
//
query sequence: CUACUUCAAACAAUCAGCCUG [Fam1A.1 aminoacylation ribozyme variant]
self-aminoacylation: 0.824
//
query sequence: AAGUUUGCAAAUAGUCGCAUG [Fam3.1 aminoacylation ribozyme variant]
self-aminoacylation: 1.07
//
query sequence: AUUCGCCUAGGUCAUGGGGUG [Fam2.2 aminoacylation ribozyme variant]
self-aminoacylation: 5.41
//
query sequence: AUUCUCCUGGUCAUCGAGUGA [Fam2.1 aminoacylation ribozyme variant]
self-aminoacylation: 6.14
//
query sequence: ACUACCCUGGGCAUCGAGUGA [Fam2.1 aminoacylation ribozyme variant]
self-aminoacylation: 7.11
//
query sequence: AAGUUUGCUAAUAGGCGCGAG [Fam3.1 aminoacylation ribozyme variant]
self-aminoacylation: 0.819
//
query sequence: CCACAUUUCAAGCUAUCGGUC [Fam1B.1 aminoacylation ribozyme variant]
self-aminoacylation: 1.1
//
query sequence: AAGUUUGCUAUCAGUCGCAAG [Fam3.1 aminoacylation ribozyme variant]
self-aminoacylation: 0.865
